# Test system: SK-N-BE(2c) (NET ++++)
# EXPERIMENT_NOTES: cells
# Assay type: cell-based
# EXPERIMENTAL_PARAMETERS: 48 hr assay, without desipramine; read-out: Cytotoxicity IC50, NET inhibition experiment
READOUT_LABEL: IC50 (µM)

>>> measured_result("N=C(N)NCc1ccc(CCl)c(I)c1 [Chloromethyl-MIBG]")
3.2

----------
# Tested on: SK-N-BE(2c) (NET ++++)
# EXPERIMENT_NOTES: cells
# Assay type: cell-based
# EXPERIMENTAL_PARAMETERS: 48 hr assay, + 1.5 μM desipramine (40 min pre-treatment, then co-incubation); read-out: Cytotoxicity IC50, NET inhibition experiment
pIC50: −log10 of the molar value.
READOUT_LABEL: pIC50

>>> measured_result("N=C(N)NCc1ccc(CCl)c(I)c1")
4.84
